Parameter Kd, tested on Serine/threonine-protein kinase Nek9 (Homo sapiens, UniProt Q8TD19), listed per item. Note: in the data inactive means no Kd found up to 30 µM.
Sequence (Q8TD19 whole entry): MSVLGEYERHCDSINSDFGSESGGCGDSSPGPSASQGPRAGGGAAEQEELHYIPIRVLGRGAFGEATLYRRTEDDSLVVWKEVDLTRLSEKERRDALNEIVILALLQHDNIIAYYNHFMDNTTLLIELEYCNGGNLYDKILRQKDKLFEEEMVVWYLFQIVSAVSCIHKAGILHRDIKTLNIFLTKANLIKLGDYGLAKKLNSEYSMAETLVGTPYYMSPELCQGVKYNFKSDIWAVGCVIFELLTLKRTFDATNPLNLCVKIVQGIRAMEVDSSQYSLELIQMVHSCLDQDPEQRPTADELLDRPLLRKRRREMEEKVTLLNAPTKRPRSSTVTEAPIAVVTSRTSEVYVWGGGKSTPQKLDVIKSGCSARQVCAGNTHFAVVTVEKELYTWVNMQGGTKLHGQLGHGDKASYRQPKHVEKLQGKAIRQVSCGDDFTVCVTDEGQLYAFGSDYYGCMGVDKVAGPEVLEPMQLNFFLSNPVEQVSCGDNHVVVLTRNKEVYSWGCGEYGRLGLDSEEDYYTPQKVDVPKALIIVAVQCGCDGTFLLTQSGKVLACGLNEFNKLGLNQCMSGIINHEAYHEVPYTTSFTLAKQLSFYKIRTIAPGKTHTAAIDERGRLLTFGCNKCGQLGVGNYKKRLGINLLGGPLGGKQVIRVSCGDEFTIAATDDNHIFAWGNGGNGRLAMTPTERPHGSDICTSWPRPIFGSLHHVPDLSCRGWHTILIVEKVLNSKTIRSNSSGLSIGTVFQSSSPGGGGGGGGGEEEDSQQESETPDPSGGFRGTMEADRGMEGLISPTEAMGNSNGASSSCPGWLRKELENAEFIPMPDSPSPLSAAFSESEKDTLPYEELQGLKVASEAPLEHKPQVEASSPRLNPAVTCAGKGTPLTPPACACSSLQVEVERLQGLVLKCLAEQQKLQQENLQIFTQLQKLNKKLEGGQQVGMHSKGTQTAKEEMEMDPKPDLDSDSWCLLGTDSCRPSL
The source made the active and inactive calls.

compound	Kd
COc1ncc(-c2ccc3nccc(-c4ccnnc4)c3c2)cc1NS(=O)(=O)c1ccc(F)cc1F	> 30 µM (inactive)
CO[C@H]1C[C@@H]2CC[C@@H](C)[C@@](O)(O2)C(=O)C(=O)N2CCCC[C@H]2C(=O)O[C@H]([C@H](C)C[C@@H]2CC[C@@H](O)[C@H](OC)C2)CC(=O)[C@H](C)/C=C(\C)[C@@H](O)[C@@H](OC)C(=O)[C@H](C)C[C@H](C)/C=C/C=C/C=C/1C	> 30 µM (inactive)

Shift focus to the following entry.
Sample C=CC(=O)Nc1cc2c(Nc3ccc(F)c(Cl)c3)ncnc2cc1C#CC(C)(C)N1CCN(C)CC1 [AV-412 FREE BASE] ; Kd observed: > 30 µM (inactive)

====

Observed Kd for Guanine nucleotide-binding protein G(i) subunit alpha-2 (Homo sapiens), reported per entry below.
Activity calls are given as the source filed them.

Examples from the recorded data:
compound	Kd
Cc1nc2cc(-c3nn(C(C)C)c4ncnc(N)c34)ccc2o1	> 30 µM (inactive)
C[C@@H](Oc1cc(-n2cnc3ccc(CN4CCN(C)CC4)cc32)sc1C(N)=O)c1ccccc1C(F)(F)F [GSK-461364]	> 30 µM (inactive)
NC(=O)Nc1cc(-c2cccc(F)c2)sc1C(=O)N[C@H]1CCCNC1 [AZD-7762]	> 30 µM (inactive)
Cc1cccc(-c2nn3c(c2-c2ccnc4ccc(C(N)=O)cc24)CCC3)n1 [GALUNISERTIB]	> 30 µM (inactive)
COc1cc2ncnc(Oc3cccc(NC(=O)Nc4cc(C(C)(C)C(F)(F)F)on4)c3)c2cc1OC [CEP-32496]	> 30 µM (inactive)

What the record says about COc1c(OCCCN2CCOCC2)ccc2c1N=C(NC(=O)c1cnc(N)nc1)N1CCN=C21 [COPANLISIB] : Kd is > 30 µM (inactive)

// Kd value for COCC(=O)NC/C=C/c1ccc2ncnc(Nc3ccc(Oc4ccc(C)nc4)c(C)c3)c2c1 [CP-724714] : > 30 µM (inactive)

// CO[C@H]1C[C@@H]2CC[C@@H](C)[C@@](O)(O2)C(=O)C(=O)N2CCCC[C@H]2C(=O)O[C@H]([C@H](C)C[C@@H]2CC[C@@H](OC(=O)C(C)(CO)CO)[C@H](OC)C2)CC(=O)[C@H](C)/C=C(\C)[C@@H](O)[C@@H](OC)C(=O)[C@H](C)C[C@H](C)/C=C/C=C/C=C/1C [TEMSIROLIMUS] : Kd value = > 30 µM (inactive)

Noted for CNC(=O)c1cccc2cc(Oc3ccnc4cc(OCC5(N)CC5)c(OC)cc34)ccc12 [LUCITANIB] : its Kd reads > 30 µM (inactive)

Looking up Cn1cnc2c(F)c(Nc3ccc(Br)cc3F)c(C(=O)NOCCO)cc21 [BINIMETINIB] , I found its Kd recorded as > 30 µM (inactive)

====

- test system: Tyrosine-protein kinase JAK1 (Homo sapiens, UniProt P23458); note: in the data inactive means no Kd found up to 30 µM
- Sequence (P23458 whole entry): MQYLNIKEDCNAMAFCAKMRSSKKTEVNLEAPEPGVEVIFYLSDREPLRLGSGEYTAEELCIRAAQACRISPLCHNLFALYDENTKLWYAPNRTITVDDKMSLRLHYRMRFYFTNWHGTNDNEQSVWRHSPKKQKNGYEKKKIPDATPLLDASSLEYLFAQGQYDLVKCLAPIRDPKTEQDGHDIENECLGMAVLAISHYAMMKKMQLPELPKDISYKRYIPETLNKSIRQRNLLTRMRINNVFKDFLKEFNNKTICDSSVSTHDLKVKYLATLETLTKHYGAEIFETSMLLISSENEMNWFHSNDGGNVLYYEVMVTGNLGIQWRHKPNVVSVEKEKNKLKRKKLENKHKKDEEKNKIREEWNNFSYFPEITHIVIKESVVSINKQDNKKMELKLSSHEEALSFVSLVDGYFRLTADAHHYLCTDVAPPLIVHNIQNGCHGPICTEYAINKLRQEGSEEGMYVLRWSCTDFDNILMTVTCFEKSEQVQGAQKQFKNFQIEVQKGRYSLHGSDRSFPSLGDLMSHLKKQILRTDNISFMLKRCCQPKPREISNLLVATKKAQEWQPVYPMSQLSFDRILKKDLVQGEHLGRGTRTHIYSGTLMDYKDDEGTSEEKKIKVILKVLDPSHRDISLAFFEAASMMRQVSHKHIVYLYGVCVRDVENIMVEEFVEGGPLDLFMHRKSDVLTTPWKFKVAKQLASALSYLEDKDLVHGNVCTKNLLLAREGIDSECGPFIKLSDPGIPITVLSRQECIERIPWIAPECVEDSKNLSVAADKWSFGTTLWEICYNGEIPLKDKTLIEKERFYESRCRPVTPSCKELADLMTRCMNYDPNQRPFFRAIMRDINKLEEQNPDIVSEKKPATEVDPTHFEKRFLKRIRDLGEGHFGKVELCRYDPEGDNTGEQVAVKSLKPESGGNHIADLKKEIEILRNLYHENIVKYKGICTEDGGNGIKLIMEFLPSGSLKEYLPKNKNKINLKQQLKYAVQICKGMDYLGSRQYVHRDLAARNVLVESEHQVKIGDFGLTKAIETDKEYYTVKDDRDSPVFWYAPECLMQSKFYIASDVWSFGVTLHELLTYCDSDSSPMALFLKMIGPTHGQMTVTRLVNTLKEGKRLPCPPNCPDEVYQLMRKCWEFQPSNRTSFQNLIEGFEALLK
The source made the active and inactive calls.
Bench note: report the call from active, inactive

smiles structure	cat
CN(C[C@@H]1COCCO1)S(=O)(=O)Nc1ccc2ccc3ncc(-c4cnn(C)c4)cc3c(=O)c2c1	inactive
CNC(=O)c1nn(C)c2c1C(C)(C)Cc1cnc(Nc3ccc(N4CCN(C)CC4)cc3)nc1-2	inactive
O=C(Cc1ccc(-c2ccc(OCCN3CCOCC3)cc2)cn1)NCc1ccccc1	inactive

I'd appreciate the recorded outcome for "CO[C@H]1C[C@@H]2CC[C@@H](C)[C@@](O)(O2)C(=O)C(=O)N2CCCC[C@H]2C(=O)O[C@H]([C@H](C)C[C@@H]2CC[C@@H](OC(=O)C(C)(CO)CO)[C@H](OC)C2)CC(=O)[C@H](C)/C=C(\C)[C@@H](O)[C@@H](OC)C(=O)[C@H](C)C[C@H](C)/C=C/C=C/C=C/1C" from this test. inactive

I would be grateful if you could indicate the recorded call for "COc1cc2ncnc(Oc3cccc(NC(=O)Nc4cc(C(C)(C)C(F)(F)F)on4)c3)c2cc1OC" . inactive

Recorded test outcome, item "O=C(Nc1c[nH]nc1-c1nc2cc(CN3CCOCC3)ccc2[nH]1)NC1CC1" active

====

As shown below, each of these molecules has a reported Kd value.
- test system: Receptor-type tyrosine-protein kinase FLT3 (Homo sapiens, UniProt P36888); note: in the data inactive means no Kd found up to 30 µM
- Sequence (P36888 whole entry): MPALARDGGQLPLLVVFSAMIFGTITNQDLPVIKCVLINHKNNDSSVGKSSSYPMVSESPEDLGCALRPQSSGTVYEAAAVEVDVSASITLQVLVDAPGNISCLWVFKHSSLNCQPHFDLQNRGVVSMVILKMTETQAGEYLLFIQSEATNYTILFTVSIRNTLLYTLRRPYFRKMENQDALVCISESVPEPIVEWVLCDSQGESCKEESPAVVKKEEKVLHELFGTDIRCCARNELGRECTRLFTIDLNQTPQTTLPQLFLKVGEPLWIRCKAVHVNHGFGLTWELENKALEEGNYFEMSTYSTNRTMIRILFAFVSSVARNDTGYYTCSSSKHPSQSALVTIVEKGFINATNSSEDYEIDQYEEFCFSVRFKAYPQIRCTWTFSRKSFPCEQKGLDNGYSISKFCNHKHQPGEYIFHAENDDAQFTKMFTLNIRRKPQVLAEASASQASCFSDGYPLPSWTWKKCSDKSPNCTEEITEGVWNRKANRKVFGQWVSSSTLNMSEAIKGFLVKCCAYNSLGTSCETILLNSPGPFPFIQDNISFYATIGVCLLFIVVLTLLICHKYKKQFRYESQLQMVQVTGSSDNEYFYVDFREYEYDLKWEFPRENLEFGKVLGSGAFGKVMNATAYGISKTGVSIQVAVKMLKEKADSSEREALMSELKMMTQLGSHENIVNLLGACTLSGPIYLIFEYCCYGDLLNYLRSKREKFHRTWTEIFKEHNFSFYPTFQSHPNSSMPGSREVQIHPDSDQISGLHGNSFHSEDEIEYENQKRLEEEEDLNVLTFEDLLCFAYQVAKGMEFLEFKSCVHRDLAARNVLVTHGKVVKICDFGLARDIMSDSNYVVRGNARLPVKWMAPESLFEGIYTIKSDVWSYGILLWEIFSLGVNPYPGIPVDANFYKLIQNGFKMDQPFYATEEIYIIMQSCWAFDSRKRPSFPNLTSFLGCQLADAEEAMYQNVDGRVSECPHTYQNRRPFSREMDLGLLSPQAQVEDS
The source made the active and inactive calls.

smiles structure	experimental value
C[C@@H](N)c1ccc(C(=O)Nc2ccnc3[nH]ccc23)cc1	> 30 µM (inactive)

Input "Cc1cc(Nc2ncnc3ccc(NC4=NC(C)(C)CO4)cc23)ccc1Oc1ccn2ncnc2c1" . Output Kd: > 30 µM (inactive)

"COc1cc([C@@H]2c3cc4c(cc3[C@H](O)[C@H]3COC(=O)[C@@H]23)OCO4)cc(OC)c1OC" yielded Kd of > 30 µM (inactive)

Kd measured on "Nc1ncnc2c1c(-c1cccc(OCc3ccccc3)c1)cn2[C@H]1C[C@@H](CN2CCC2)C1" = > 30 µM (inactive)

# Kd (molecule: "CCNC(=O)C#Cc1ccc2c(c1)NC(=O)/C2=C(\Nc1ccc(CN(C)C)cc1)c1ccccc1" ) is 0.148 µM (active)

In plain terms, "NC(=O)Nc1cc(-c2cccc(F)c2)sc1C(=O)N[C@H]1CCCNC1" has a documented Kd of > 30 µM (inactive)

Form: molecule = "CC(C)c1cc(CNc2nc(Nc3cc(C4CC4)[nH]n3)cc(N3CCN(C)CC3)n2)on1" ; Kd = 0.005 µM (active)

So for "Cc1nc2cc(-n3ncc(C(=O)c4cc5ccccc5[nH]4)c3N)ccc2[nH]1" , the logged Kd turned out to be > 30 µM (inactive)

====

Active and inactive are the calls of the source.
Please consider the recorded Kd for Mitogen-activated protein kinase kinase kinase 20 (Homo sapiens, UniProt Q9NYL2) in what follows.

Completed entries (count: 8):
smiles structure	test system	Kd
Cn1cnc2c(F)c(Nc3ccc(Br)cc3F)c(C(=O)NOCCO)cc21	Mitogen-activated protein kinase kinase kinase 20 (Homo sapiens, UniProt Q9NYL2)	> 30 µM (inactive)
CC(=O)c1cnc2ccc(-c3cc(Cl)c(O)c(Cl)c3)nc2c1N[C@H]1CC[C@H](CN(C)C)CC1	Mitogen-activated protein kinase kinase kinase 20 (Homo sapiens, UniProt Q9NYL2)	0.101 µM (active)
COc1c(OCCCN2CCOCC2)ccc2c1N=C(NC(=O)c1cnc(N)nc1)N1CCN=C21	Mitogen-activated protein kinase kinase kinase 20 (Homo sapiens, UniProt Q9NYL2)	> 30 µM (inactive)
Cn1cc(-c2cnn3c(N)c(Br)c([C@@H]4CCCNC4)nc23)cn1	Mitogen-activated protein kinase kinase kinase 20 (Homo sapiens, UniProt Q9NYL2)	> 30 µM (inactive)
C[C@H]1CNCCCN1S(=O)(=O)c1cccc2cncc(F)c12	Mitogen-activated protein kinase kinase kinase 20 (Homo sapiens, UniProt Q9NYL2)	> 30 µM (inactive)
CC(C)(C)c1nc(-c2cccc(NS(=O)(=O)c3c(F)cccc3F)c2F)c(-c2ccnc(N)n2)s1	Mitogen-activated protein kinase kinase kinase 20 (Homo sapiens, UniProt Q9NYL2)	0.184 µM (active)
Cc1cccc(-c2nn3c(c2-c2ccnc4ccc(C(N)=O)cc24)CCC3)n1	Mitogen-activated protein kinase kinase kinase 20 (Homo sapiens, UniProt Q9NYL2)	> 30 µM (inactive)
COCc1c(-c2ccc(NC(=O)Nc3cc(C(F)(F)F)ccc3F)c(F)c2)c2c(N)ncnn2c1CN1CCOCC1	Mitogen-activated protein kinase kinase kinase 20 (Homo sapiens, UniProt Q9NYL2)	> 30 µM (inactive)

In the following, a different compound is considered.
Sure, the documented Kd for "Cc1cc(C(=O)NOCCO)c(Nc2ccc(I)cc2F)n(C)c1=O" is > 30 µM (inactive)

====

- test system: Inhibitor of nuclear factor kappa-B kinase subunit epsilon (Homo sapiens, UniProt Q14164); note: in the data inactive means no Kd found up to 30 µM
- Sequence (Q14164 whole entry): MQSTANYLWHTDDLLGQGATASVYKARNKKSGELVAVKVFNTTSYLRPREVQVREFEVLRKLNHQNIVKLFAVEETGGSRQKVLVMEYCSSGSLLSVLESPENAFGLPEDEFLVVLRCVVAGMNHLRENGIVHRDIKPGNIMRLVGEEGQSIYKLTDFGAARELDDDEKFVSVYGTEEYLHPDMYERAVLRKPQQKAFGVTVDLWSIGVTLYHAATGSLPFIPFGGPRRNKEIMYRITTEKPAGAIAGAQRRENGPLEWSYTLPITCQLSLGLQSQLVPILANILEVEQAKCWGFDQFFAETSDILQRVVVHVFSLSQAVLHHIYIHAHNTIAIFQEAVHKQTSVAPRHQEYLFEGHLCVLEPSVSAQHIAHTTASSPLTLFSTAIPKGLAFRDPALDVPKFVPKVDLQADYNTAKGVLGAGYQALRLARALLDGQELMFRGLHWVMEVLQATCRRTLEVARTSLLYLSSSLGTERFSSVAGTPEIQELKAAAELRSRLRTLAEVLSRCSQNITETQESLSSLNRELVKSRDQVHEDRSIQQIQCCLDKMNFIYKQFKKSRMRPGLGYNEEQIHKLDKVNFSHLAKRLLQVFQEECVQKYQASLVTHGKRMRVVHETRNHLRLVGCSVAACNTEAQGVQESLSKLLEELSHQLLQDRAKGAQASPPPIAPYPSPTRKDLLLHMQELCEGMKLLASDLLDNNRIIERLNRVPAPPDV
Calls of active or inactive are those of the source.
Give your call using only these classes: active, inactive

Illustrative cases are given below, each with its answer.
molecule	test system	cat
Cc1nc(NC(=O)N2CCC[C@H]2C(N)=O)sc1-c1ccnc(C(C)(C)C(F)(F)F)c1 [ALPELISIB]	Inhibitor of nuclear factor kappa-B kinase subunit epsilon (Homo sapiens, UniProt Q14164)	inactive
CC(C)(C)c1nc(-c2cccc(NS(=O)(=O)c3c(F)cccc3F)c2F)c(-c2ccnc(N)n2)s1 [DABRAFENIB]	Inhibitor of nuclear factor kappa-B kinase subunit epsilon (Homo sapiens, UniProt Q14164)	inactive
O=C(Nc1c[nH]nc1-c1nc2cc(CN3CCOCC3)ccc2[nH]1)NC1CC1 [AT-9283]	Inhibitor of nuclear factor kappa-B kinase subunit epsilon (Homo sapiens, UniProt Q14164)	active

Recorded test call requested for Nc1ncnc2c1c(-c1cccc(OCc3ccccc3)c1)cn2[C@H]1C[C@@H](CN2CCC2)C1 [AEW-541] inactive

Test call for this molecule, please: CN1CCN(CCOc2cc(OC3CCOCC3)c3c(Nc4c(Cl)ccc5c4OCO5)ncnc3c2)CC1 [SARACATINIB] inactive

Test call, this molecule: C#Cc1cccc(Nc2ncnc3cc(OC)c(OCCCCCCC(=O)NO)cc23)c1 [CUDC-101] inactive

Give the logged outcome of this assay for the following molecule: CN1C/C=C/CCOc2cccc(c2)-c2ccnc(n2)Nc2cccc(c2)C1 [ZOTIRACICLIB] inactive

Hi, sorry to bother you, what did the test record for C=CC(=O)Nc1cc2c(Nc3ccc(F)c(Cl)c3)ncnc2cc1C#CC(C)(C)N1CCN(C)CC1 [AV-412 FREE BASE] ? inactive

What did the test return for Cn1cnc2c(F)c(Nc3ccc(Br)cc3F)c(C(=O)NOCCO)cc21 [BINIMETINIB] ? inactive

Recorded test outcome, item CCOc1cc2ncc(C#N)c(Nc3ccc(F)c(Cl)c3)c2cc1NC(=O)/C=C/CN(C)C [PELITINIB] inactive

Outcome? C[C@@H](N)c1ccc(C(=O)Nc2ccnc3[nH]ccc23)cc1 [Y-39983] inactive

Called result for CN(C[C@@H]1COCCO1)S(=O)(=O)Nc1ccc2ccc3ncc(-c4cnn(C)c4)cc3c(=O)c2c1 [MK-2461] inactive

Per the assay record, what outcome was assigned to Cc1cccc(-c2nn3c(c2-c2ccnc4ccc(C(N)=O)cc24)CCC3)n1 [GALUNISERTIB] ? inactive

Which outcome was entered for the molecule CNC(=O)c1nn(C)c2c1C(C)(C)Cc1cnc(Nc3ccc(N4CCN(C)CC4)cc3)nc1-2 [MILCICLIB] in this test? active

Can you look up the reported call for COc1ncc(-c2ccc3nccc(-c4ccnnc4)c3c2)cc1NS(=O)(=O)c1ccc(F)cc1F [OMIPALISIB] for me? inactive

Status in this test for CNC(=O)c1cc(Oc2ccc(NC(=O)Nc3cc(C(C)(C)C)nn3-c3ccc4ncccc4c3)c(F)c2)ccn1 [REBASTINIB] ? inactive
